meta.source: paper PMC4526861

Tested on: SMMC-7721 cells
Assay: Cell proliferation assay (CCK-8), SMMC-7721
Type: cell-based, human
Details: Homo sapiens, SMMC-7721; mean ± SD, at least three independent experiments
The entries below are paired with their reported IC50.
Answer with a number only, understood to be in µM.

O=c1[nH]cc(F)c(=O)[nH]1 [5-Fu, 5-Fluorouracil, reference compound]	14.6

Just so you know, measured IC50 for O=c1c2ccc3c(c2oc2cc(O)cc(O)c12)OC(c1ccccc1)(c1ccccc1)O3 came out at 6.35
